procedure_details: Plasma half life within the human body
Format: in vivo
property_name: half-life

Please list half-life recorded for the compound O=C(O)c1ccc(-n2nc(-c3ccccc3O)nc2-c2ccccc2O)cc1 8 to 16 h

Hello, the source for this data is patent US20110294861A1, in case you need it.
